system: UACC-257 melanoma; assay: NCI tumour cell line growth inhibition, 48 h; in the data active = GI50 below about 0.43 µM; inactive = the rest
Classes used: True for active, False for inactive

- compound: "CN(C)c1ccc(/C=N/N=C(\\C#N)[S][Sn]([Cl])([c]2ccccc2)[c]2ccccc2)cc1"
  class-label: "False"
- compound: "CCN1CCN(CC(=O)Nc2nc3ccc(NCc4ccc(Br)cc4)cc3s2)CC1"
  class-label: "False"
- compound: "COc1ccc(-c2c(Nc3ccccn3)nc3c(C4=CCCCC4)c(-c4ccccc4)[nH]n3c2=O)cc1"
  class-label: "False"
- compound: "O=C(/C=C(\\[O-])c1ccccc1)CCCCCCC(=O)/C=C(\\[O-])c1ccccc1.O=C(/C=C(\\[O-])c1ccccc1)CCCCCCC(=O)/C=C(\\[O-])c1ccccc1.O=C(/C=C(\\[O-])c1ccccc1)CCCCCCC(=O)/C=C(\\[O-])c1ccccc1.[Y+3].[Y+3]"
  class-label: "False"
- compound: "CN(c1ccccc1)c1c2ccccc2nc2[nH]c3ccccc3c12"
  class-label: "False"
- compound: "COc1cc2c(Oc3ccc(-c4cnc(Nc5ccc(F)cc5)n(C)c4=O)cc3F)ccnc2cc1OCCCN1CCOCC1"
  class-label: "False"
- compound: "Cc1ccc(-c2nc([P+](c3ccccc3)(c3ccccc3)c3ccccc3)c(N3CCOCC3)o2)cc1"
  class-label: "True"
- compound: "COC(=O)C(C)NP(=O)(OCc1cccc(Cn2cnc3c(N)ncnc32)c1)Oc1ccccc1 (configuration not stated)"
  class-label: "False"
- compound: "N#C[Se]CCN1C(=O)c2ccccc2C1=O"
  class-label: "False"
- compound: "CNCc1cccc2c1OCCOCCOCCNS(=O)(=O)c1ccc(cc1)-c1cnc(N)c(n1)C(=O)N2"
  class-label: "False"
- compound: "CC(=O)O[C@H]1C[C@@H]2[C@@]3(C)CC[C@H]4C[C@@]4(C)[C@@H]3CC[C@@]2(C)C2=CCC3=C(COC3=O)[C@]21C"
  class-label: "False"
- compound: "OC[C@H]1C[C@](O)(c2ccc(F)cc2)[C@@H](c2ccc(F)cc2)O1"
  class-label: "False"
- compound: "CN(C)[C@@H]1C(=O)C(C(=O)NCc2nc3[nH]cnc(=S)c3[nH]2)=C(O)[C@@]2(O)C(=O)C3=C(O)c4c(O)cccc4[C@@](C)(O)[C@H]3C[C@@H]12"
  class-label: "False"
- compound: "FC(F)(F)c1cccc(CNC2CCN(CCc3ccccc3)CC2)c1"
  class-label: "False"
- compound: "CCOC(=O)C#Cc1c(C(=O)OCC)nnn1[C@@H]1O[C@H](COC)[C@@H](OC)[C@H]1OC"
  class-label: "False"
- compound: "CN1CCN(C(=O)/C=C/c2ccc([N+](=O)[O-])o2)CC1"
  class-label: "False"
- compound: "O=C1C[C@@H]2OCC=C3C[N+]4([O-])CC[C@]56c7ccccc7N1[C@H]5[C@H]2[C@H]3C[C@@H]64 (some centres not stated)"
  class-label: "False"

The values you see were collected from PubChem BioAssay (NCI).
